protocol.notes: Pharmacokinetics in healthy human adults (Phase 1)
Type: in vivo
applied.conditions: human, plasma; 400 mg dose; free drug; read-out: average 24 h AUC over a 7 day period
Starred links: 1 amine or outer side, 2 acyl side, 3 side chain; linkers in the order of their positions; H or OH if unused. Positions of bridges follow the written chain, without caps; N, C: chain ends. Non-standard residues stand in square brackets, D forms with d. Residues, ends and D or L forms follow the SMILES beside them. *: point of attachment. Orn(4R-OH,5R-OCH2CH2NMe3+) = C[N+](C)(C)CCO[C@@H](N[*:3])[C@H](O)C[C@H](N[*:1])C(=O)[*:2]; pTerphenylCO(4''-OnC5H11) = CCCCCOc1ccc(-c2ccc(-c3ccc(C(=O)*)cc3)cc2)cc1; hTyr(3S-OH,4S-OH) = N[C@H](C(=O)O)[C@H](O)[C@@H](O)c1ccc(O)cc1; Pro(3S-OH,4S-Me) = C[C@H]1CN[C@H](C(=O)O)[C@H]1O; Hyp = O=C(O)[C@@H]1C[C@@H](O)CN1
recorded.endpoint: AUC

Give the measured AUC of CCCCCOc1ccc(-c2ccc(-c3ccc(C(=O)N[C@H]4C[C@@H](O)[C@@H](OCC[N+](C)(C)C)NC(=O)[C@@H]5[C@@H](O)[C@@H](C)CN5C(=O)[C@H]([C@@H](C)O)NC(=O)[C@H]([C@H](O)[C@@H](O)c5ccc(O)cc5)NC(=O)[C@@H]5C[C@@H](O)CN5C(=O)[C@H]([C@@H](C)O)NC4=O)cc3)cc2)cc1 [CD101] ({pTerphenylCO(4''-OnC5H11)}-[Orn(4R-OH,5R-OCH2CH2NMe3+)]T[Hyp][hTyr(3S-OH,4S-OH)]T[Pro(3S-OH,4S-Me)]; lactam 1-C) .
~4300 ng·h/mL

---

protocol.notes: Pharmacokinetic profile in mice following a 10-mg/kg subcutaneous dose
Type: in vivo
applied.conditions: mouse, plasma, sc, read-out: absolute bioavailability
Starred links: 1 amine or outer side, 2 acyl side, 3 side chain; linkers in the order of their positions; H or OH if unused. Positions of bridges follow the written chain, without caps; N, C: chain ends. Non-standard residues stand in square brackets, D forms with d. Residues, ends and D or L forms follow the SMILES beside them. *: point of attachment. Orn(4R-OH,5R-OCH2CH2NMe3+) = C[N+](C)(C)CCO[C@@H](N[*:3])[C@H](O)C[C@H](N[*:1])C(=O)[*:2]; pTerphenylCO(4''-OnC5H11) = CCCCCOc1ccc(-c2ccc(-c3ccc(C(=O)*)cc3)cc2)cc1; hTyr(3S-OH,4S-OH) = N[C@H](C(=O)O)[C@H](O)[C@@H](O)c1ccc(O)cc1; Pro(3S-OH,4S-Me) = C[C@H]1CN[C@H](C(=O)O)[C@H]1O; Hyp = O=C(O)[C@@H]1C[C@@H](O)CN1
recorded.endpoint: bioavailability

Give the measured bioavailability of CCCCCOc1ccc(-c2ccc(-c3ccc(C(=O)N[C@H]4C[C@@H](O)[C@@H](OCC[N+](C)(C)C)NC(=O)[C@@H]5[C@@H](O)[C@@H](C)CN5C(=O)[C@H]([C@@H](C)O)NC(=O)[C@H]([C@H](O)[C@@H](O)c5ccc(O)cc5)NC(=O)[C@@H]5C[C@@H](O)CN5C(=O)[C@H]([C@@H](C)O)NC4=O)cc3)cc2)cc1 [CD101] ({pTerphenylCO(4''-OnC5H11)}-[Orn(4R-OH,5R-OCH2CH2NMe3+)]T[Hyp][hTyr(3S-OH,4S-OH)]T[Pro(3S-OH,4S-Me)]; lactam 1-C) .
~50%
